Origin of values: the supplement of paper PMC11061612

Entries and their measured Bliss excess follow.
- System: SK-N-FI (Neuroblastoma);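 also: after 72 h of two-drug dosing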
- EXPERIMENT: Bliss excess, mean over the matrix (fraction); higher = more synergy
METRIC: Bliss excess

MOLECULE | QUANTITATIVE_READOUT
COc1nnc2ccc(N3CCC(c4ccc(OCCN5CCN(C)C(=O)[C@H]5C)cc4)CC3)nn12 [AZD5153] + CC1(C)CCC(CN2CCN(c3ccc(C(=O)NS(=O)(=O)c4ccc(NCC5CCOCC5)c([N+](=O)[O-])c4)c(Oc4cnc5[nH]ccc5c4)c3)CC2)=C(c2ccc(Cl)cc2)C1 [Venetoclax] (first compound max 1 µM, 7x7, partner max 1 µM) | -0.0581
Cc1c2c(nn1C)CSCc1cc(n(C)n1)CSc1cc(c3ccccc3c1)OCCCc1c(C(=O)O)n(C)c3c-2c(Cl)ccc13 [AZD5991] + C[C@@H](Nc1cc(F)cc(F)c1)c1cc(C(=O)N(C)C)cc2c(=O)cc(N3CCOCC3)oc12 [AZD8186] (first compound max 1 µM, 7x7, partner max 3 µM) | -0.024
